system: HS 578T breast; assay: NCI tumour cell line growth inhibition, 48 h
Below, each entry is listed with its recorded TGI.

>>> df
                                   compound  measured_property  reported_measurement
0  O=C1CC(CC(O)C(O)CO)CC(=O)N1 (stereo not given)                TGI              > 100 µM

Q: Record request: TGI value, item `O=c1oc2ccccc2c(O)c1C(c1ccc([N+](=O)[O-])cc1)c1c(O)c2ccccc2oc1=O`
Result: > 100 µM

Q: Report TGI for `Nc1nonc1-c1noc(-c2nonc2N)[n+]1[O-]` please.
Result: > 100 µM

Q: What value of TGI has been recorded for this entry: `CCOC(=O)c1c2ccccc2n2c(=O)n(C)nnc12`
Result: > 100 µM

Q: Fill in the blank: the reported TGI of `C=C(C)[C@@H]1CC[C@]2(C)[C@H](CC=C3[C@@H]4CC(C)(C)CC[C@]4(C(=O)OC)CC[C@]32C)[C@@]1(C)CC/C(N)=N/O` is ____.
Result: 4.97 µM
